// provenance: ChEMBL document CHEMBL1201862

system: U-251; assay: NCI tumour cell line growth inhibition, 48 h
Activity calls are given as the source filed them. Rule as the data show it: active = GI50 up to about 1.1 µM and inactive = higher.
Known GI50 of a selection of compounds
measurement.label: GI50

INSERT INTO measurements (compound, result_value) VALUES
  ('CCC(=O)N(c1ccccc1)C(C)CN1CCC(O)(c2ccccc2)CC1 (stereo not drawn)', '> 100 µM (inactive)'),
  ('Cc1ccccc1C(C#N)C(=O)C(=O)Nc1nc([N+](=O)[O-])cs1 (stereo not drawn)', '> 100 µM (inactive)'),
  ('CCc1n[nH]c(=O)n1NC(=O)/C=C\C(=O)O', '> 100 µM (inactive)');

---

test system: NCI-H460; assay: NCI tumour cell line growth inhibition, 48 h
Calls of active or inactive are those of the source. Rule as the data show it: active = GI50 up to about 1.1 µM and inactive = higher.
measurement.label: GI50

INSERT INTO results (compound, result_value) VALUES
  ('CN(C)C(=S)Nc1nnc(NC23CC4CC(CC(C4)C2)C3)s1.[O-][Cl+3]([O-])([O-])O', '12.6 µM (inactive)'),
  ('O=c1cc(-c2nc3ccccc3[nH]2)[nH]c2nc(-c3nc4ccccc4[nH]3)cc(-c3ccc(Cl)cc3)c12', '16.3 µM (inactive)'),
  ('Oc1ccc(O)c(-n2cccn2)c1-n1cccn1', '> 100 µM (inactive)'),
  ('O=C(CSc1nc2ccccc2c(=O)n1-c1ccccc1)N/N=C1\C(=O)Nc2ccc(F)cc21', '2.19 µM (inactive)'),
  ('O=C(O)C1(C(=O)O)CC1', '> 100 µM (inactive)'),
  ('COC(=O)CCC12CCC(=O)C1[C@@H](C(=O)OC)C[C@H]2C(=O)OC (stereo partly drawn)', '> 100 µM (inactive)'),
  ('C=CCOC(=O)N1c2ccc(O)cc2[C@@]23O[C@@]24[C@@H]1C#C/C=C\C#C[C@]3(O)C(=O)C[C@@H]4C', '11.5 µM (inactive)'),
  ('Brc1c(C#CCC2CCCCC2)ccc(C#CCC2CCCCC2)c1Br', '> 100 µM (inactive)');

---

system: NCI-H226; assay: NCI tumour cell line growth inhibition, 48 h
Active and inactive are the calls of the source. No stated cut-off is given here; in the data, active = GI50 up to about 1.1 µM and inactive = higher.
Classes used: active, inactive

INSERT INTO measurements (molecule, measured_target, assigned_label) VALUES
  ('CCn1cc(C(=O)O)c(=O)c2cc(F)c(N3CCNCC3)nc21 [ENOXACIN]', 'NCI-H226', 'inactive'),
  ('CC1=C(C#N)C(=O)CC(c2ccc(Cl)cc2)N(C)N1 (stereo not drawn)', 'NCI-H226', 'inactive'),
  ('O=S(=O)(c1ccccc1)N1N=C2c3ccccc3CCC[C@H]2C1c1ccccc1 (stereo partly drawn)', 'NCI-H226', 'inactive'),
  ('COc1cc2c(c(OC(C)=O)c1OC(C)=O)-c1ccc(SC)c(=O)cc1C(NC(C)=O)CC2 (stereo not drawn)', 'NCI-H226', 'inactive'),
  ('CS(=O)(=O)OCCN(CCOS(C)(=O)=O)c1ccc(/C=N/c2ccc3oc(=O)ccc3c2)cc1', 'NCI-H226', 'inactive'),
  ('CN(/N=C/c1ccccc1O)c1ccc2ccccc2n1', 'NCI-H226', 'inactive'),
  ('CN(C)c1ccc(C(C#N)N2CCCN(C(C#N)c3ccc(N(C)C)cc3)C2c2ccc(N(C)C)cc2)cc1 (stereo not drawn)', 'NCI-H226', 'inactive'),
  ('Cc1ccc2c(=O)cc(Cc3csc4ccccc34)[nH]c2n1', 'NCI-H226', 'inactive'),
  ('O=C(C[C@@H]1NCCC[C@H]1O)Cn1cnc2cc(Br)c(Cl)cc2c1=O', 'NCI-H226', 'active'),
  ('COc1ccc(Cn2c3ccc([N+](=O)[O-])cc3c(=O)n2Cc2ccccn2)cc1', 'NCI-H226', 'inactive'),
  ('O=C1Nc2ccc(Cl)c(I)c2C1=O', 'NCI-H226', 'active'),
  ('O=c1cc(-c2nc3ccccc3[nH]2)[nH]c2nc(-c3nc4ccccc4[nH]3)cc(-c3ccc(Cl)cc3)c12', 'NCI-H226', 'inactive'),
  ('COc1ccc(/C=C(\C(=O)OCC(C)C)c2ccc(OC)c(OC)c2)cc1OC', 'NCI-H226', 'inactive'),
  ('CCOc1ccc2c(ccc(/C=C/c3cc(C)c4cccnc4c3O)[n+]2C)c1', 'NCI-H226', 'active'),
  ('COc1ccc(C2=NN(C(=N)S)C(c3ccccc3)C2)cc1 (stereo not drawn)', 'NCI-H226', 'inactive'),
  ('Cc1n[nH]c(=O)n1C1CC1', 'NCI-H226', 'inactive'),
  ('C/C(=N\NC(N)=S)c1nc2cccnc2[nH]1', 'NCI-H226', 'inactive'),
  ('C=CCOC(=O)N1c2ccc(O)cc2[C@@]23O[C@@]24[C@@H]1C#C/C=C\C#C[C@]3(O)C(=O)C[C@@H]4C', 'NCI-H226', 'inactive'),
  ('CC(C)(C)CC(C)(C)N/C(N)=N/O', 'NCI-H226', 'inactive'),
  ('O=c1cc(-c2ccccc2)[nH]c2ccc(N3CCCCC3)cc12', 'NCI-H226', 'active'),
  ('CCCCOC(=O)c1cc(C(=CCC[C@H]2CC[C@@]3(C)[C@@H](CC[C@@H]4[C@@H]3CC[C@]3(C)[C@@H](C(C)CCCC(C)C)CC[C@@H]43)C2)c2cc(Cl)c(O)c(C(=O)OCCCC)c2)cc(Cl)c1O (stereo partly drawn)', 'NCI-H226', 'inactive'),
  ('CC(=O)c1cccc(NC(=O)C(=O)C(C(=O)NN)c2ccccc2)c1 (stereo not drawn)', 'NCI-H226', 'inactive'),
  ('CC(=O)OCC1OC(n2c(=S)n(-c3ccccc3)c(=O)c3cc(Br)cc(Br)c32)C(OC(C)=O)C(OC(C)=O)C1OC(C)=O (stereo not drawn)', 'NCI-H226', 'inactive'),
  ('O=[N+]([O-])c1ccc2c(c1)c(S(=O)(=O)O)cc1nonc12', 'NCI-H226', 'inactive'),
  ('c1cncc(C2(c3cc4ccccc4[nH]3)COCO2)c1 (stereo not drawn)', 'NCI-H226', 'inactive'),
  ('CC(C)C1=CC23CCC4C(C)(C(=O)O)CCCC4(C)C2CC1C1C(=O)N(c2ccccc2)C(=O)C13 (stereo not drawn)', 'NCI-H226', 'inactive'),
  ('Cc1cc(=O)oc2cc(OCc3nc4ccccc4c(=O)[nH]3)ccc12', 'NCI-H226', 'inactive'),
  ('CCOC(=O)C(C(C)=O)C1CC=CC1 (stereo not drawn)', 'NCI-H226', 'inactive');
